Reported melting point values for the following compounds.

Cc1cc(-c2nc3cccnn3c2-c2ccnc(NC(N)=O)c2)ccc1F : 254 to 255 °C
COc1ccc2c(c1)sc1nc(Nc3ccccc3)nc(=Nc3ccccc3)n12 : 213 to 214 °C
Cc1cc2c(s1)CCCNC2=O : 119 to 120 °C

Give its melting point value. Item: COc1ccc(C2COc3cc(O)c(O)cc3C2)cc1 (stereo unspecified) 160 °C

Quick one: melting point for FC(F)(F)CSC1(c2cccc(OCc3ccc4ccccc4c3)c2)CCOCC1 ? 76 to 78 °C

Item CC1(C)CCC(C)(C)c2cc(C(=O)c3ccccc3C(=O)N(CCO)CCO)ccc21 has what recorded melting point? 116 °C

Given the compound O=C1C(=C2C=C(c3ccccc3)S(=O)(=O)C(c3ccccc3)=C2)C(=O)c2ccccc21 , what is its reported melting point? 235 to 236 °C

Recorded melting point for O=S(=O)(c1ccc(Cl)cc1)C(c1ccc(CN2CCCCC2)cn1)c1cc(F)ccc1F (stereo unspecified) , please? 113 to 114 °C

Can you look up the measured melting point of Cc1ccc2cccc(OCc3c(Cl)ccc(S(=O)(=O)N4CCCC4C(=O)NCCCCCO)c3Cl)c2n1 (stereo unspecified) for me? 64 °C

Name the reported melting point value associated with the compound Cc1c(CCC2CC(O)CC(=O)O2)c2c(c(C)c1OC(=O)c1ccccc1)CC(C)(C)O2 (stereo unspecified) 188 to 190 °C

Entry COc1cc2c(cc1C(=O)COc1ccc(C(=O)OCc3ccccc3)c(O)c1)C(C)(C)CCC2(C)C : reported melting point = ? 118 to 119 °C

Value lookup for melting point; key = Cn1c(C(F)(F)F)ccc(-c2c(Cl)cc(Cl)c3oc(C(Br)(Br)Br)cc23)c1=O 225 to 227 °C

May I ask what melting point has been recorded for Cc1cc(C#CCc2ccc3c(c2)C(C)(C)CCC3(C)C)ccc1C(=O)O ? 149 to 150 °C

Give its melting point value. Item: Clc1cc(N2CCCCCC2)nc(-c2ccccc2)n1 64 to 66 °C

Given the compound CNC(=O)c1c(O)c(=O)cc(C)n1C , what is its reported melting point? > 250 °C

Would you mind telling me what melting point value was observed for CC(=O)c1cccc(NC(=O)C2CC2)c1 ? 136 to 137 °C

I'd like to know its melting point. The compound in question is Cc1cc(Cl)ccc1N=Cc1ccc(Cl)cc1 75 to 76 °C

Please look up its melting point: Cc1ccc2c(c1)C(c1ccncc1)CC2(O)c1ccc(F)cc1 (stereo unspecified) 187 to 192 °C

For the compound CCCCCCCCCCc1ccc2cc(OS(=O)(=O)C(F)(F)F)c(SC)cc2c1 , what melting point is on record? 42 to 42.9 °C

So what's the measured melting point for this one? CCOC(=O)C(=CNc1ccc(F)c(Cl)c1)C(=O)OCC 71.5 to 72.5 °C

Consider the compound Cc1ccc(NS(=O)(=O)c2ccc(N3CCNC3=O)cc2)cc1 and give its measured melting point. 218 to 220 °C

Using the record for CCOC(=O)CNCc1cccc(-c2c(CC(=O)Nc3ccc(F)cc3C(F)(F)F)c(=O)oc3cc(Cl)c(C)cc23)c1 , report its melting point. 153 to 155 °C

GET /values?readout=melting point&item= CCOC(=O)/C(=C\Nc1cccc(OC)c1)c1ccccc1 49 to 50 °C

Which melting point value belongs to C=CCSc1nc2ccc(OCC)cc2[nH]1 ? 147 to 149 °C
